For each of the compounds below, state its growth.
System: TK-10 renal
Assay: NCI-60 one-dose screen, 48 h (100 = growth as untreated, 0 = no growth, -100 = all killed)
Details: 10 µM unless noted
The panel holds about 83,000 compounds, 20% with a hit somewhere; the sample as a whole holds those more often.
# unit: % | format: bare number

Per the records, this compound ( COc1ccc(N2CCC(=S)NC2=S)cc1 ) has growth equal to 96

Per the records, this compound ( CCCCCCCC/C=C\CCCCCCCCOc1ccc(CC(=O)NCC[N+]2(C)CCOCC2)cc1 ) has growth equal to 44.7

Per the records, this compound ( CCCn1cnc2c(c1=N)C(c1ccc(F)cc1)c1sc3c(F)cccc3c1O2 (stereo not given) ) has growth equal to 80.3

Per the records, this compound ( C=CN(C(=O)N1CCN(c2cc3c(cc2F)c(=O)c(C(=O)O)cn3C2CC2)CC1)c1nc(-c2ccc(OC)cc2)cs1 ) has growth equal to 42.8

Per the records, this compound ( CNC(=O)c1cc(Oc2cccc3nc(NC(=O)Nc4cc(C(F)(F)F)ccc4Cl)ccc23)ccn1 ) has growth equal to 111
